assayDetails: qHTS assay for small molecule disruptors of the mitochondrial membrane potential (AID 720635)
conditionsUsed: HepG2 mitochondrial membrane potential, Mito-MPS dye ratio; series mostly up to 83.2 µM
Records with an inconclusive call do not appear. The source made the active and inactive calls. Calls follow the shape of the dose curve; as a rule, active = well fitted inhibition curve with a large enough effect in the signal ratio in the repeat runs; inconclusive = weak or mixed curves, or effect the other way; inactive = flat fitted curve, though single readings scatter; the % refers to the signal ratio.
Your reply should match one of these outcome classes. active, inactive

# fetch the recorded call for "N#CCCSCCC#N" here
inactive

Hi, do you know how "COC(=O)N(C(=O)N1CO[C@@]2(C(=O)OC)Cc3cc(Cl)ccc3C2=N1)c1ccc(OC(F)(F)F)cc1" came out in this test?
active

Outcome? "CN(C)CCc1c[nH]c2cccc(O)c12"
inactive

Status in this test for "c1ccc2c(c1)[nH]c1cnccc12" ?
inactive

I'd appreciate the recorded outcome for "Oc1c(Cl)c(Cl)cc(Cl)c1Cl" from this test.
active

Outcome logged for "Cc1cc(C)cc(OP(=O)(Oc2cc(C)cc(C)c2)Oc2cc(C)cc(C)c2)c1" in this assay:
active

// param item: "CCCCCCCCCCCCBr" ; yields the recorded call
active

Record request — test call for "CN(C)[C@@H]1C(=O)C(C(N)=O)=C(O)[C@@]2(O)C(=O)C3=C(O)c4c(O)ccc(Cl)c4[C@@](C)(O)[C@H]3C[C@@H]12"
inactive

Would you mind telling me which call this test gave "CCCCCCCCCCCCCCCCCCn1cc[n+](C)c1" ?
active

Record request — test call for O=C1c2ccccc2C(=O)C1C(=O)C(c1ccccc1)c1ccc(Cl)cc1 (configuration not stated)
active

Test call, this compound: "CCCCN(CCCC)C(=S)[S-].CCCCN(CCCC)C(=S)[S-].[Zn+2]"
active

Recorded test call requested for "CC(=O)c1cc(C(C)(C)C)cc2c1CCC2(C)C"
active

* * *

targetEntity: Progesterone receptor (Homo sapiens)
assayDetails: qHTS assay to identify small molecule antagonists of the progesterone receptor (PR) signaling pathway (AID 1346795)
conditionsUsed: PR-UAS-bla HEK293T, beta-lactamase FRET ratio, 16 h; series mostly up to 92.4 µM
Results filed as inconclusive are left out. Calls of active or inactive are those of the source. Calls follow the shape of the dose curve; as a rule, active = well fitted inhibition curve with a large enough effect in the signal ratio in the repeat runs (not every such curve was filed as active); inconclusive = weak or mixed curves; inactive = flat fitted curve, though single readings scatter; the % refers to the signal ratio.
Thanks in advance; please answer with one of these: active, inactive

# fetch the recorded call for CCC(C)c1cc([N+](=O)[O-])cc([N+](=O)[O-])c1OC(=O)C=C(C)C (stereo not given) here
active

Lab log entry: "C=COCCCl" — outcome as called in the assay?
inactive

Write down the call the test reported for this molecule. Item: "c1ccc(Nc2ccc3ccccc3c2)cc1"
active

Which outcome did this test record for the molecule CC(Cl)CN(C)C (stereo not given) ?
inactive

Query: recorded result category for "ClC1=C(Cl)[C@]2(Cl)[C@@H]3[C@@H](Cl)[C@H](Cl)C[C@@H]3[C@@]1(Cl)C2(Cl)Cl" in this test
inactive

Which result was noted for this molecule in the test: "Cc1c(Cl)c(=O)oc2cc(OP(=O)(OCCCl)OCCCl)ccc12"
active

Test call, this molecule: CNC(C)Cc1ccc2c(c1)OCO2 (stereo not given)
active

Please share the test call associated with "COP(N)(=S)OC" .
inactive

Called result for "CC(=O)c1cc(C(C)(C)C)cc2c1CCC2(C)C"
inactive

# outcome recorded in this test, key = "Nc1c(Oc2ccccc2)cc(O)c2c1C(=O)c1ccccc1C2=O"
inactive

# lookup: test call for CCOC(=O)OC1=C(c2cc(C)ccc2C)C(=O)NC12CCC(OC)CC2 (stereo not given)
inactive

Returns: the outcome recorded for "Cc1cc(SCc2sc(-c3ccc(C(F)(F)F)c(F)c3)nc2C)ccc1OCC(=O)O" in this assay.
active

Could you please tell me the result logged for "Clc1ccc(-c2ccccc2)cc1" in this assay?
inactive

Which outcome was assigned to "Cc1ccc(C(=O)Cl)cc1" in this test?
inactive

Recorded test call requested for CC(O)C#N (stereo not given)
inactive

Any idea what this test logged for "Cl/C=C\CCl" ?
inactive

Assay result, entry "CCS(=O)(=O)c1cccnc1S(=O)(=O)NC(=O)Nc1nc(OC)cc(OC)n1" — outcome?
inactive

For this molecule, state the assay outcome: CC(C)(COCC1CO1)COCC1CO1 (stereo not given)
inactive

GET /call?item= "CCCCCCCCc1ccc(O)cc1" returns the recorded outcome of this test.
active

Test call, this molecule: "CC(C)N1C(=O)N(c2ccccc2)CSC1=NC(C)(C)C"
active

Please indicate how the test categorized "Cc1cc(N=Nc2ccccc2C)ccc1N" .
active

Dear all, I need the recorded test outcome for CCSC(C)CC1CC(=O)C(/C(CC)=N/OC/C=C/Cl)=C(O)C1 (stereo not given) , thank you.
inactive

Please share the test call associated with "CN(CCCC(=O)c1cccnc1)N=O" .
inactive

Could you kindly confirm the outcome this assay logged for "Cc1ccc(OP(=O)(Oc2ccccc2)Oc2ccccc2)cc1" ?
active

Identify the outcome logged in this assay for the molecule shown: "CCN"
inactive

Called result for "ClCc1ccccc1CCl"
inactive

Recorded test call requested for "C=CCOC(N)=O"
inactive

Record lookup: outcome of this test for "Nc1ccccc1C(=O)OC/C=C/c1ccccc1" ?
active

Tell me the assay call for "CN(C)S(=O)(=O)N(SC(F)(Cl)Cl)c1ccccc1" please.
active

How did this test come out for "Cc1cccc(OP(=O)(Oc2cccc(C)c2)Oc2cccc(C)c2)c1" ?
active

# fetch the recorded call for "CCCCCCCCCBr" here
inactive

Per the records of this test, what outcome belongs to "ClCc1ccc(Cl)cc1Cl" ?
inactive

Query: recorded result category for O=C1NCN(c2ccccc2)C12CCN(CC1COc3ccccc3O1)CC2 (stereo not given) in this test
inactive

What outcome does the record of this test show for "Nc1ccccc1C(=O)Oc1ccc2ccccc2c1" ?
active

Entry "N#CCCO" : call = ?
inactive

Lab log entry: "CCC(C)(C)C(=O)OC1=C(c2ccc(Cl)cc2Cl)C(=O)OC12CCCCC2" — outcome as called in the assay?
inactive

Hello, I am checking results. What call was entered for "N#CCCSCCC#N" ?
inactive

Recorded call for "CN(C)C1CSSSC1" ?
inactive

What classification did "NC(=O)c1ccc(N)nc1" end up with in this test?
inactive

# fetch the recorded call for "SCc1ccco1" here
inactive

What did this assay record as the result for "CC(=O)OC1(c2ccccc2)CCN(CCc2ccccc2)CC1" ?
inactive

Identify the outcome logged in this assay for the molecule shown: "BrCBr"
inactive

What call does the record list for "COc1ccc(N)cc1N" ?
inactive

Per the assay record, what outcome was assigned to "S=C=Nc1cccc2ccccc12" ?
active

Hi, do you know how "CCOP(=S)(OCC)SCS(=O)(=O)C(C)(C)C" came out in this test?
active

How was "COc1cccc(C(=O)CCN[C@@H](C)[C@H](O)c2ccccc2)c1" classified in this test?
inactive

Outcome logged for COC(=O)N(C(=O)N1COC2(C(=O)OC)Cc3cc(Cl)ccc3C2=N1)c1ccc(OC(F)(F)F)cc1 (stereo not given) in this assay:
active

Please let me know the test result on file for "COP(=O)(OC)SCn1c(=O)oc2cc(Cl)cnc21" .
inactive

Any idea what this test logged for "CCN(CC)C(=S)[S-].CCN(CC)C(=S)[S-].[Zn+2]" ?
active

// outcome(item) with item = "Oc1cc(Cl)c(Cl)c(Cl)c1"
active

Name the outcome recorded for "ClC(Cl)=C(c1ccc(Cl)cc1)c1ccc(Cl)cc1" in the assay.
active

// outcome(item) with item = "Oc1cccc(-c2ccccc2)c1"
active

Write down the call the test reported for this molecule. Item: "CC[C@H](C)[C@H]1O[C@]2(C=C[C@@H]1C)C[C@@H]1C[C@@H](C/C=C(\C)[C@@H](O[C@H]3C[C@H](OC)[C@@H](O[C@H]4C[C@H](OC)[C@@H](O)[C@H](C)O4)[C@H](C)O3)[C@@H](C)/C=C/C=C3\CO[C@@H]4[C@H](O)C(C)=C[C@@H](C(=O)O1)[C@]34O)O2"
active

Assay outcome for "N#C/C=C/C#N" : what was it?
active

So what was the verdict on "Cc1cc(Cl)ccc1O[C@H](C)C(=O)O" in this test?
inactive

* * *

assayDetails: qHTS assay to identify small molecule agonists of the endoplasmic reticulum stress response signaling pathway (AID 1159516); also: % is scaled to controls: 0 for no effect and ±100 for the full control effect
conditionsUsed: ESRE-bla HeLa, ER stress beta-lactamase reporter, 5 h; series mostly up to 61 µM
Results filed as inconclusive are left out. Activity calls are given as the source filed them. Calls come from the whole dose curve; as a rule, active = well fitted activation curve with a large enough effect in the signal ratio in the repeat runs (not every such curve was filed as active); inconclusive = weak or mixed curves, or effect the other way; inactive = flat fitted curve, though single readings scatter; the % refers to the signal ratio.
observationType: outcome

compound: CC(=O)Nc1ccc2c(c1)Cc1ccccc1-2
observationType: outcome
recordedResult: inactive
//
compound: c1ccc(OCC2CO2)cc1 (stereo not drawn)
observationType: outcome
recordedResult: inactive
//
compound: Cc1cc(C(F)(C(F)(F)F)C(F)(F)F)ccc1NC(=O)c1cccc(I)c1C(=O)NC(C)(C)CS(C)(=O)=O
observationType: outcome
recordedResult: inactive

* * *

assayDetails: qHTS RealTime-Glo MT Cell Viability Assay in HepG2 cells - 8 hour (AID 1224873); also: nearly all actives have a fitted effect of over 55% in size
conditionsUsed: RealTime-Glo luminescence; series mostly up to 76.8 µM
Inconclusive results are not listed. Activity calls are given as the source filed them. Calls come from the whole dose curve; as a rule, active = well fitted cell-killing curve with a large enough effect in the repeat runs; inconclusive = weak or mixed curves; inactive = flat fitted curve, though single readings scatter.
# output must be one of yes (1) for active, no (0) for inactive

Could you kindly confirm the outcome this assay logged for "C[C@]12Cc3nonc3C[C@@H]1CC[C@@H]1[C@@H]2CC[C@@]2(C)[C@H]1CC[C@]2(C)O" ?
no (0)

Which result was noted for this compound in the test: "Oc1c(Br)c(Br)c(Br)c(Br)c1Br"
no (0)

Record request — test call for "ClCc1ccccc1CCl"
no (0)

Hey, what did the test say about "C[C@]12CC[C@H]3[C@@H](CCC4=CC(=O)CC[C@@]43C)[C@@H]1CC[C@@H]2O" ?
no (0)

Test call, this compound: "CC(=O)[O-].CC(=O)[O-].[Hg+2]"
yes (1)

Write down the call the test reported for this compound. Item: "Fc1ccc(Oc2ccnc3cc(Cl)cc(Cl)c23)cc1"
no (0)

Field: outcome | Entry: "CC(C)CCCCCCCOP(=O)(Oc1ccccc1)Oc1ccccc1"
no (0)

Assay outcome for "NC(=O)CCl" : what was it?
no (0)

Which result was noted for this compound in the test: "CCOP(=S)(OCC)SCCS(=O)(=O)CC"
no (0)

Record lookup: outcome of this test for "O=C(O)COc1nc(Cl)c(Cl)cc1Cl" ?
no (0)

Which result was noted for this compound in the test: "COc1cccc(C(=O)CCN[C@@H](C)[C@H](O)c2ccccc2)c1"
no (0)

Recorded test call requested for "[CH3][Hg][Cl]"
yes (1)

Hey, what did the test say about "COP(=O)(CCC(=O)NCO)OC" ?
no (0)

Can you look up the reported call for CCOc1cc(C(C)(C)C)ccc1C1COC(c2c(F)cccc2F)=N1 (configuration not stated) for me?
no (0)

Please indicate how the test categorized "COc1ccc([N+](=O)[O-])cc1O" .
no (0)

What outcome does the record of this test show for "O=C(O)c1cc[c]([Hg][Cl])cc1" ?
yes (1)

Can you look up the reported call for "CC(C)(C)OO" for me?
no (0)
